assay_protocol: physchem
measurement_conditions: pH 3, aqueous buffer
endpoint: solubility (µg/mL)
Write down the numeric answer in µg/mL and omit the unit.

QUERY: What measured solubility goes with `C=CC(=O)Nc1cccc(Nc2nc(Nc3ccc(OCCOC)cc3)ncc2F)c1.O=S(=O)(O)c1ccccc1` ?
RESULT: 400
